B1: DVL3 (parent)
chain: SDVVDWLYHNVEGFTDRREARKYA

variants of: B1; assay: protein stability index of a GFP-peptide fusion (GPS, HEK-293T) (PSI 1-6); higher = more stable; details: c terminus: a fixed tail appended;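 also: lentivirally expressed fusions sorted by FACS into six bins by GFP to DsRed ratio, PSI derived from sequencing read proportions per bin multiplied by bin number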
propertyName: protein stability index
Enter a number only.

Determine its reported protein stability index: `F14K` 4.76

Determine its reported protein stability index: `R21P` 2.66

Determine its reported protein stability index: `K22I` 2.85

Determine its reported protein stability index: `V4S` 3.68

Determine its reported protein stability index: `E12H` 2.88

Determine its reported protein stability index: `L7H` 4.68

Determine its reported protein stability index: `V11P` 4.08

Determine its reported protein stability index: `T15Y` 3.24

Determine its reported protein stability index: `R18N` 3.55

Determine its reported protein stability index: `L7G` 4.25

Determine its reported protein stability index: `G13I` 2.28

Determine its reported protein stability index: `Y23C` 3.69

Determine its reported protein stability index: `Y8E` 4.2

Determine its reported protein stability index: `N10C` 2.1

Determine its reported protein stability index: `V4W` 2.44

Determine its reported protein stability index: `D2G` 2.89

Determine its reported protein stability index: `R17I` 1.82
